Source: patent US6734190B2

target: B7-1/CD28 (Homo sapiens, UniProt P33681); experiment: CD28/B7-1 ELISA (B7-1/CD28 binding inhibition); conditions: CD28-Fc coated wells; B7-1-Fc-biotin/streptavidin-alkaline phosphatase detection complex; 1% DMSO
Sequence (P33681 35-242 limits assumed): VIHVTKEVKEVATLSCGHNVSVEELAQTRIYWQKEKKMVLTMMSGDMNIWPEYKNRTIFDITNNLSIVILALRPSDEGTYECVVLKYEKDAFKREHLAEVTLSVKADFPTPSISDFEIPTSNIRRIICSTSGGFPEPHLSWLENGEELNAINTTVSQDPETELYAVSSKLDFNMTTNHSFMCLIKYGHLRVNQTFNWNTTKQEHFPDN
pIC50: −log10 of the molar value.
quantity.name: pIC50

[
  {
    "compound": "COC(=O)C1CCN(C(=O)c2ccc(-n3[nH]c4c(c(-c5cccc(C(F)(F)F)c5)nc5c4cnn5C)c3=O)cc2)CC1 [Example 26]",
    "pIC50": 7.05
  },
  {
    "compound": "CN(CCC#N)C(=O)c1ccc(-n2[nH]c3c(c(-c4cccc(C(F)(F)F)c4)nc4c3cnn4C)c2=O)cc1 [Example 72]",
    "pIC50": 6.96
  },
  {
    "compound": "COC(CN(C)C(=O)c1cccc(-n2[nH]c3c(c(-c4cccc(C(F)(F)F)c4)nc4c3cnn4C)c2=O)c1)OC [Example 8]",
    "pIC50": 7.51
  },
  {
    "compound": "Cn1ncc2c3[nH]n(-c4ccc(C(=O)N5CCSCC5)cc4)c(=O)c3c(-c3cccc(C(F)(F)F)c3)nc21 [Example 77]",
    "pIC50": 6.85
  },
  {
    "compound": "COC(=O)CNC(=O)c1cccc(-n2[nH]c3c(c(-c4cccc(C(F)(F)F)c4)nc4c3cnn4C)c2=O)c1 [Example 45]",
    "pIC50": 7.00
  }
]
